Below are pIC50 measurements against UniProt:P48067 drawn from the literature.
pIC50: −log10 of the molar value.

{"columns": ["compound", "valueRelationSign", "pIC50"],
 "data": [
  ["CCCS(=O)(=O)N1CCC(CNC(=O)c2ccc(C(F)(F)F)cc2F)(C(=O)N2CCOCC2)CC1", "=", 7.37],
  ["O=S(=O)(NC[C@H](O)CN1CCCCC1)c1cccc2ccccc12", "=", 5.50],
  ["CCS(=O)(=O)N1CCC(CNC(=O)c2ccc(Cl)cc2Cl)(c2ccccn2)CC1", "=", 7.24],
  ["O=C(NC[C@]1(CC2CC2)CC[C@H](S(=O)(=O)CC2CC2)CC1)c1ccc(Cl)cc1Cl", "=", 7.54],
  ["CCCS(=O)(=O)N1CCC(CNC(=O)c2ccc(Cl)cc2Cl)(C(=O)N2CCN(C)CC2)CC1", "<", 5.30],
  ["Cc1cc(S(=O)(=O)[C@H]2CC[C@](CNC(=O)c3ccc(Cl)cc3Cl)(CC3CC3)CC2)no1", "=", 8.14],
  ["O=S(=O)(NC[C@H](O)CN1CCCC1C1CC1)c1cccc2ccccc12 (stereo in doubt)", "=", 5.80],
  ["CCCS(=O)(=O)N1CCC(CNC(=O)c2ccc(Cl)cc2Cl)(C2CCCCC2O)CC1 (centres undefined)", "=", 8.55],
  ["O=C(NCC1(c2ccccn2)CCN(S(=O)(=O)CC(F)(F)F)CC1)c1ccc(Cl)cc1Cl", "=", 5.97]
]}

###

- targetOfAssay: Sodium- and chloride-dependent glycine transporter 1 (Homo sapiens, UniProt P48067)
- Sequence (P48067 whole entry): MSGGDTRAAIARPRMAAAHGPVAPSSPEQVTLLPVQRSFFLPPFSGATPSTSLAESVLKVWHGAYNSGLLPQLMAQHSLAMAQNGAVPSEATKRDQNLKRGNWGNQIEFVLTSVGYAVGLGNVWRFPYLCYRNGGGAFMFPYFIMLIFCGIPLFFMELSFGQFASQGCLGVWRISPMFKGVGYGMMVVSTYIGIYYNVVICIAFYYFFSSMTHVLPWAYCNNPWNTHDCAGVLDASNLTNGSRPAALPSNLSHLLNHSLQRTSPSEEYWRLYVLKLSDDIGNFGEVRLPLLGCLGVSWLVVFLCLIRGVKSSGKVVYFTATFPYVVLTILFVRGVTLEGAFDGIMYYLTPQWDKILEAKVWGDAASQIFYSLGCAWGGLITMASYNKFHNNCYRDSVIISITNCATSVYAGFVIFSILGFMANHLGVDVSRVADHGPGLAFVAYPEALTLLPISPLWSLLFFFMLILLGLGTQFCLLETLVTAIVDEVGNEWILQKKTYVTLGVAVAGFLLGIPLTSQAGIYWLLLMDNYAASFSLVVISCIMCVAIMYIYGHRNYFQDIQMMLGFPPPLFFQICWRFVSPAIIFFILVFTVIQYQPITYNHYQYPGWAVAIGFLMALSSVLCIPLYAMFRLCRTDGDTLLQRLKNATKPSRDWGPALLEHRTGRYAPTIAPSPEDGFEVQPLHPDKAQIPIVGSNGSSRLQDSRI
pIC50: −log10 of the molar value.
Below are pIC50 measurements against Sodium- and chloride-dependent glycine transporter 1 (Homo sapiens, UniProt P48067) drawn from the literature.
pIC50 of 7 or higher: true (1). Under 7: false (0).

{"columns": ["compound", "qualitativeLabel"],
 "data": [
  ["O=C(NCC1(c2ccccn2)CCN(S(=O)(=O)C2CC2)CC1)c1ccc(Cl)cc1Cl", "false (0)"],
  ["CC(C)CC1CCCN1C[C@@H](O)CNS(=O)(=O)c1cccc2ccccc12 (single isomer, unassigned; isomer B)", "false (0)"],
  ["CCCS(=O)(=O)[C@H]1CC[C@](CNC(=O)c2ccc(Cl)cc2Cl)(CC2CC2)CC1", "true (1)"],
  ["CC1CCCN1C[C@H](O)CNS(=O)(=O)c1cccc2ccccc12 (some centres undefined)", "false (0)"],
  ["CS(=O)(=O)N1CCC(CNC(=O)c2ccc(Cl)cc2Cl)(c2ccccn2)CC1", "false (0)"],
  ["CCC1CCCN1C[C@@H](O)CNS(=O)(=O)c1cccc2ccccc12 (single isomer, unassigned; isomer B)", "false (0)"],
  ["O=C(NC1CCC2CN(S(=O)(=O)c3ccccc3)CC21)c1ccc(Cl)cc1Cl (racemic)", "false (0)"],
  ["CCCS(=O)(=O)N1CCC(CNC(=O)c2ccccc2Cl)(C(=O)N2CCOCC2)CC1", "true (1)"]
]}

###

pIC50: −log10 of the molar value.
Below are pIC50 measurements against Sodium- and chloride-dependent glycine transporter 1 (Homo sapiens) drawn from the literature.

{"columns": ["compound", "valueRelationSign", "pIC50"],
 "data": [
  ["Cc1cc(S(=O)(=O)[C@H]2CC[C@@](CNC(=O)c3ccc(Cl)cc3Cl)(CC3CC3)CC2)no1", "=", 8.07],
  ["CC(C)C1CCCCN1C[C@@H](O)CNS(=O)(=O)c1cccc2ccccc12 (stereo in doubt)", "=", 6.20],
  ["CCOCCn1c(CN2CCN(CCCC(c3ccc(F)cc3)c3ccc(F)cc3)CC2)nc2cccnc21", "=", 6.81],
  ["Cn1cnc(S(=O)(=O)N2CC3CCC(NC(=O)c4ccc(F)c(F)c4)C3C2)c1 (racemic)", "=", 5.80],
  ["CCCS(=O)(=O)N1CCC(CNC(=O)c2cc(F)c(Cl)cc2Cl)(C(=O)N2CCOCC2)CC1", "=", 8.20],
  ["O=C(NC[C@]1(CC2CC2)CC[C@@H](S(=O)(=O)c2cnn[nH]2)CC1)c1ccc(Cl)cc1Cl", "=", 5.52],
  ["CCCS(=O)(=O)N1CCC(CNC(=O)c2ccc(Cl)cc2Cl)(C(=O)N(C)C)CC1", "=", 6.74],
  ["CCCS(=O)(=O)N1CC2CCC(NC(=O)c3ccc(Cl)cc3Cl)C2C1 (racemic)", "<", 5.00],
  ["CCCS(=O)(=O)N1CCC(CNC(=O)c2ccc(Cl)cc2Cl)(C2CCCCC2OC(C)=O)CC1 (centres undefined)", "=", 7.75]
]}
